Recorded RE for the following molecules
System: Caco-2 monolayer
Assay: Caco-2 monolayer permeability screen
Settings: Table 1
// return just the number, without any unit appended

COc1ccc(N2CCN(C(c3ccc(N(C)C)cc3)c3nnnn3C(C)(C)C)CC2)cc1 (stereo not shown) ... 0.9
Cn1c(=O)[nH]c(=O)c2c1nc(S)n2CC(O)COc1ccc(Cl)cc1 (stereo not shown) ... 18.2
Nc1ccc(N2CCOCC2)c2nonc12 ... 0.2

[ask] Fill in the blank: the reported RE of `Cc1cccc(NCc2ccc(O)c3ncccc23)c1C` is ____.
[reply] 2.7

---

Tested on: Caco-2 monolayer
Assay: Caco-2 monolayer permeability screen
Conditions: Table 1
MEASURED_QUANTITY: B −> A Papp

Below, 4 compounds whose answers are already recorded.
Nc1ccc(N2CCOCC2)c2nonc12 [Compound 11] ... 7.0 10^−6 cm · s^−1
Cc1cccc(NCc2ccc(O)c3ncccc23)c1C [Compound 12] ... 3.7 10^−6 cm · s^−1
Cn1c(=O)[nH]c(=O)c2c1nc(S)n2CC(O)COc1ccc(Cl)cc1 (centres unmarked) [Compound 38] ... 20.3 10^−6 cm · s^−1
COc1ccc(N2CCN(C(c3ccc(N(C)C)cc3)c3nnnn3C(C)(C)C)CC2)cc1 (centres unmarked) [Compound 31] ... 17.4 10^−6 cm · s^−1

Now consider a different compound.
[ask] Fill in the blank: the reported B −> A Papp of CCN(CC)c1ccc(CN2CCc3nc(C)[nH]c(=O)c3C2)c(OC)c1 [Compound 64] is ____.
[reply] <LLOQ
